Biological target: rat brain N-type calcium channel subunits (α1B+α2δ+β1b cDNA subunits) (Rattus norvegicus, UniProt Q02294)
Construct: expressed in transfected cells; host or cells: HEK 293
Sequence (Q02294 whole entry): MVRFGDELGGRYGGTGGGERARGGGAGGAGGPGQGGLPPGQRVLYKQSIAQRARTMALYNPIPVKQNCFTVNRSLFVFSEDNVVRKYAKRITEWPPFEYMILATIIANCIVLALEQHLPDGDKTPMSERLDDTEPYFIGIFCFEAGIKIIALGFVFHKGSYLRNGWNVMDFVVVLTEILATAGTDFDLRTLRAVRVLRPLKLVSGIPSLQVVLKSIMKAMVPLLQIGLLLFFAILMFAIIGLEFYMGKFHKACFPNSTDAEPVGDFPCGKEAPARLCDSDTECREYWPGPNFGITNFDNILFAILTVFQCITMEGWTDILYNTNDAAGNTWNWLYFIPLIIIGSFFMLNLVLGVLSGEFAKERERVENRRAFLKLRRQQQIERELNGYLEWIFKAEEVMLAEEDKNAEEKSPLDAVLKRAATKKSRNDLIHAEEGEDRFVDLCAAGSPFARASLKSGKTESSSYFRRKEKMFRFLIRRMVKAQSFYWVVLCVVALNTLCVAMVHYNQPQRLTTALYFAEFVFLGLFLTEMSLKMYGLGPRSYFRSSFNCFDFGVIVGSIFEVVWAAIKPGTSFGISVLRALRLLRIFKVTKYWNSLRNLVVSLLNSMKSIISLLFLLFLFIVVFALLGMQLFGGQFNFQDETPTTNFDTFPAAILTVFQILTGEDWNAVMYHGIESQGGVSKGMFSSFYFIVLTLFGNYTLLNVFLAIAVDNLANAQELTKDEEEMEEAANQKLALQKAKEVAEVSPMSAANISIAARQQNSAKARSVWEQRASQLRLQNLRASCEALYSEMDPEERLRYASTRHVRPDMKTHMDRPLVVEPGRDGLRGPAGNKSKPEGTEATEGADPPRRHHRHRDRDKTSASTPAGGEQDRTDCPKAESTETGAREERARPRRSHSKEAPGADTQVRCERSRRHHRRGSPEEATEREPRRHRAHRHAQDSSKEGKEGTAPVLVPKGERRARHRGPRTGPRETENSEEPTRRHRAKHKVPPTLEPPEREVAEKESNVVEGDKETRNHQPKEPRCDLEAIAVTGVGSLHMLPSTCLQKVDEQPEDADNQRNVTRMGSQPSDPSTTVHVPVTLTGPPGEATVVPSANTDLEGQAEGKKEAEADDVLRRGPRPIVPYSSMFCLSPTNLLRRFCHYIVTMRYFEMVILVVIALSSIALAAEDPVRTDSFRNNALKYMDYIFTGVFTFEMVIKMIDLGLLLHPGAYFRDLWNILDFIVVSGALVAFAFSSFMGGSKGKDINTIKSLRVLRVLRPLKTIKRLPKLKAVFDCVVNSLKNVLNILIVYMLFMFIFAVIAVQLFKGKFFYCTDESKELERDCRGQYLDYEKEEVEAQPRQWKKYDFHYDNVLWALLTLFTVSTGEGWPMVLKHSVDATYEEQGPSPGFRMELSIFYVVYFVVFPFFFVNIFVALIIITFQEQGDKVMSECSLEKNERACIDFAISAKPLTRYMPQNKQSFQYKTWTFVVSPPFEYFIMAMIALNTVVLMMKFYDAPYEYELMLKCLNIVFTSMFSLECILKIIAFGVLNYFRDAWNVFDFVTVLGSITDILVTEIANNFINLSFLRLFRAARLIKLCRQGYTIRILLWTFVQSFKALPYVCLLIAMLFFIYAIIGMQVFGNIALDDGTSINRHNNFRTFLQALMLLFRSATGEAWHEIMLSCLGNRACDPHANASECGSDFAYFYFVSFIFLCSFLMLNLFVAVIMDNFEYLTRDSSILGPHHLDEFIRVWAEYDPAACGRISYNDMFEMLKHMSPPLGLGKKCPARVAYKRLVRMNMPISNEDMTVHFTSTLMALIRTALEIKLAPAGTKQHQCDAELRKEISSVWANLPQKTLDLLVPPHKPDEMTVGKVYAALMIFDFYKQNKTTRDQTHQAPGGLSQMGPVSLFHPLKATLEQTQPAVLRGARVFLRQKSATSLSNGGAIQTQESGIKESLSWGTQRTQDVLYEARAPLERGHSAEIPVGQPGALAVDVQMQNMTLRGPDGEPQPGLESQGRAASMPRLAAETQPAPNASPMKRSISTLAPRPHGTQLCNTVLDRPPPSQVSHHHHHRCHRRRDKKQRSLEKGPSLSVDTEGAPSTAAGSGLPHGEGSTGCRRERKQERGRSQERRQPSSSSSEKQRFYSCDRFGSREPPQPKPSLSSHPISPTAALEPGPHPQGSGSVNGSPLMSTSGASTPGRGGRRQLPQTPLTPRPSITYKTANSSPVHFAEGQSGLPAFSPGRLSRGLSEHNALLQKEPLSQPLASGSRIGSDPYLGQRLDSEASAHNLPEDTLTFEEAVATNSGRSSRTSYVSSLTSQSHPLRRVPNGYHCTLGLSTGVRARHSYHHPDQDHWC
Sequence (P54290 25-944 partner limits assumed): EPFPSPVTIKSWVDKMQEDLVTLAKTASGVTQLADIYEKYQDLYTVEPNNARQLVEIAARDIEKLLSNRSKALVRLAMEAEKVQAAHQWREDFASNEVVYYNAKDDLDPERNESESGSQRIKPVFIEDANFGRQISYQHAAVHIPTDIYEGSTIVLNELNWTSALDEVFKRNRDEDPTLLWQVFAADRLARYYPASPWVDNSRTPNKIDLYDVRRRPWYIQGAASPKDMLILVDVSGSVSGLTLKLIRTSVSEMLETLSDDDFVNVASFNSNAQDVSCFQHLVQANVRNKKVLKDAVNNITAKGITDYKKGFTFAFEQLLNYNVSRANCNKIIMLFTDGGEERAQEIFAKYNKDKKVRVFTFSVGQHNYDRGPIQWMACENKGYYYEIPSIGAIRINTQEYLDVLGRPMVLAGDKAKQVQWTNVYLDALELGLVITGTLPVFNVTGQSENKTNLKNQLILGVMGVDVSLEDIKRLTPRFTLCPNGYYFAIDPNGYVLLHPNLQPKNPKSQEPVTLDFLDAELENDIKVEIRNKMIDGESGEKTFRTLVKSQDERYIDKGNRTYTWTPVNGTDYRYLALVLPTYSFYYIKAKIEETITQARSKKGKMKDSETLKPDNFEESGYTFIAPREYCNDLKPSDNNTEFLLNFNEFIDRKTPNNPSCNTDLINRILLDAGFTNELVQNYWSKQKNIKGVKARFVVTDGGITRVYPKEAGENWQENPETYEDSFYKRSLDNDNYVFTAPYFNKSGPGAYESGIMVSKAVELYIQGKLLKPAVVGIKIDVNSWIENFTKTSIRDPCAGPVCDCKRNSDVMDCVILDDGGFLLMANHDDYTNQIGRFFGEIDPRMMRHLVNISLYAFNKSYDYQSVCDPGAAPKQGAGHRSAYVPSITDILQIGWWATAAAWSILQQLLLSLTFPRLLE
Sequence (P54290 945-1091 partner limits assumed): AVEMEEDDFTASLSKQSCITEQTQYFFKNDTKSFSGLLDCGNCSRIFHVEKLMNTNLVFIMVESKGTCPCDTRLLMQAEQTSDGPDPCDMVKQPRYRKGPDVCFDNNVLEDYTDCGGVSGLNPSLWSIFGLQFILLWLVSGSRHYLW
Sequence (P54283 whole entry partner): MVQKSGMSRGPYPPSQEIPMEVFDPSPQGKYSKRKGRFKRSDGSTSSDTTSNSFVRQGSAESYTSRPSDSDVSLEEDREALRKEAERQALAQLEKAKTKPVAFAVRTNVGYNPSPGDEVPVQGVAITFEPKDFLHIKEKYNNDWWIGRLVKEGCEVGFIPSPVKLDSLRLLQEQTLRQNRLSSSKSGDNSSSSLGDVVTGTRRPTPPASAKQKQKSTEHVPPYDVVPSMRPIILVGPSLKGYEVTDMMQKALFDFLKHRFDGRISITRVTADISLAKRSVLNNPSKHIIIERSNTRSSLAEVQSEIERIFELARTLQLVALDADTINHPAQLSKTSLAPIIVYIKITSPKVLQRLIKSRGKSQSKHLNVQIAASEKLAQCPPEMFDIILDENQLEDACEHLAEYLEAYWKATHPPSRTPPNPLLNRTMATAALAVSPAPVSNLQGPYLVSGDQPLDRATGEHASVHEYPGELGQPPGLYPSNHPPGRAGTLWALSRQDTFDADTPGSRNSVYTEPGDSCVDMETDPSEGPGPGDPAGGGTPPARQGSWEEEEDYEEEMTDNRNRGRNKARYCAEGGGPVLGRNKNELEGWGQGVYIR
Assay: N-type calcium channel block, whole cell patch clamp in transfected HEK 293 cells
Assay type: cell-based
Conditions: low frequency stimulation 0.067 Hz (tonic block), holding potential −80 mV to +10 mV, 5 mM BaCl2, read-out: IC50 @ 0.067 Hz
property-measured: IC50 (µM)
Dear colleague, please return just the value in µM, with no unit written.

Here's what some known entries look like.
Cc1ccccc1C(CC(=O)N1CCC(C(=O)N2CCN(C)CC2)(c2ccccc2)CC1)c1ccccc1C = 0.38
Cc1ccccc1C(CC(=O)N1CCC(CN2CC(C)NC(C)C2)(c2ccccc2)CC1)c1ccccc1C (stereo not shown) = 0.61
CN1CCN(C(=O)C2CCN(C(=O)NC(c3ccccc3)c3ccccc3)CC2)CC1 = 4.48
CN1CCN(C(=O)C2CCN(C(=O)CNC(c3ccccc3)c3ccccc3)CC2)CC1 = 4.79

response.value for Cc1ccccc1C(CC(=O)N1CCC(C(=O)N2CCNCC2)CC1)c1ccccc1C (field: IC50) = 3.52

The value of IC50 measured for the compound Cc1ccccc1C(CC(=O)N1CCC(CN2CCN(C)CC2)CC1)c1ccccc1C turned out to be 1.9

Value of IC50 reported for the compound Cc1ccccc1C(CC(=O)N1CCC(C(=O)N2CC(C)NC(C)C2)CC1)c1ccccc1C (stereo not shown) is 5.85

get_value(item= CN1CCN(C(c2ccccc2)C2CCN(C(=O)CC(c3ccccc3)c3ccccc3)CC2)CC1 (stereo not shown) , readout=IC50) returns 2.36

Notebook: CC1CN(C(=O)C2(c3ccccc3)CCN(C(=O)CC(c3ccccc3)c3ccccc3)CC2)CC(C)N1 (stereo not shown) , IC50 read as 1.31

Reported IC50 ( CN1CCN(CC2CCN(C(=O)NC(c3ccccc3)c3ccccc3)CC2)CC1 ) = 28.4

The compound listed as O=C(NC(c1cccc(F)c1)c1cccc(F)c1)N1CCC(CN2CCCCC2)CC1 has a reported IC50 of 5.59

CN1CCN(C(=O)C2CCN(C(=O)C[S+]([O-])C(c3ccccc3)c3ccccc3)CC2)CC1 (stereo not shown) yielded IC50 of 2.41

The recorded IC50 for entry CC(C)(C)N1CCN(CC2CCN(C(=O)CCCCC(c3ccccc3)c3ccccc3)CC2)CC1 equals 0.42

IC50 reading for Cc1ccccc1C(CC(=O)N1CCC(C(=O)N2CCN(C(C)(C)C)CC2)CC1)c1ccccc1C : 1.48

Reported IC50 of CN1CCN(C(=O)C2CCN(C(=O)CC(c3ccccc3)c3ccccc3)CC2)CC1 : 1.26

---

Target: rat brain N-type calcium channel subunits (α1B+α2δ+β1b cDNA subunits) (Rattus norvegicus)
Construct: expressed in transfected cells; host or cells: HEK 293
Assay: N-type calcium channel block, whole cell patch clamp in transfected HEK 293 cells
Format: cell-based
Settings: low frequency stimulation 0.067 Hz (tonic block), holding potential −80 mV to +10 mV, 5 mM BaCl2, read-out: IC50 @ 0.067 Hz
property-measured: log10 IC50 (log10 of the value in µM)
Lab note - IC50 converted to log10 from values in µM.

Lab note: measured log10 IC50 of Cc1ccccc1C(CC(=O)N1CCC(CN2CCN(C(C)(C)C)CC2)CC1)c1ccccc1C was -0.28

The measured log10 IC50 associated with Cc1ccccc1C(CC(=O)N1CCC(CN2CCCCC2)CC1)c1ccccc1C reads 0.82

GET /value?item= Cc1ccccc1C(CC(=O)N1CCC(C(c2ccccc2)N2CC(C)NC(C)C2)CC1)c1ccccc1C (centres unmarked) &field=log10 IC50 returns -0.03

Notebook: CC1CN(CC2CCN(C(=O)C[S+]([O-])C(c3ccccc3)c3ccccc3)CC2)CC(C)N1 (centres unmarked) , log10 IC50 read as 0.57

For reference, reported log10 IC50 for CN1CCN(CC2CCN(C(=O)CC(c3ccccc3)c3ccccc3)CC2)CC1 stands at 0.40

---

Biological target: rat brain N-type calcium channel subunits (α1B+α2δ+β1b cDNA subunits) (Rattus norvegicus, UniProt Q02294)
Construct: expressed in transfected cells; host or cells: HEK 293
Assay: N-type calcium channel block, whole cell patch clamp in transfected HEK 293 cells
Assay type: cell-based
Details: pulse frequency 0.2 Hz (frequency dependent block), holding potential −80 mV to +10 mV, 5 mM BaCl2, read-out: IC50 @ 0.2 Hz
Threshold-based label: IC50 under 0.8 µM gives Satisfied, IC50 not under 0.8 µM gives Not satisfied.

// below: answered molecules
Cc1ccccc1C(CC(=O)N1CCC(C(c2ccccc2)N2CCN(C)CC2)CC1)c1ccccc1C (stereo not shown) = Satisfied
CC1CN(CC2CCN(C(=O)CC(c3ccccc3)c3ccccc3)CC2)CC(C)N1 (stereo not shown) = Not satisfied
CN1CCN(C(=O)C2CCN(C(=O)NC(c3ccccc3)c3ccccc3)CC2)CC1 = Not satisfied
Cc1ccccc1C(CC(=O)N1CCC(CN2CCCCC2)CC1)c1ccccc1C = Not satisfied
CC1CN(C(=O)C2(c3ccccc3)CCN(C(=O)CNC(c3ccccc3)c3ccccc3)CC2)CC(C)N1 (stereo not shown) = Not satisfied

Confirm or reject: IC50 of CC1CN(C(c2ccccc2)C2CCN(C(=O)CC(c3ccccc3)c3ccccc3)CC2)CC(C)N1 (stereo not shown) lies strictly below 0.8 µM
Satisfied

Threshold test, IC50 < 0.8 µM: CC1CN(C(=O)C2CCN(C(=O)CNC(c3ccccc3)c3ccccc3)CC2)CC(C)N1 (stereo not shown)
Not satisfied

Identify whether the molecule Cc1ccccc1C(CC(=O)N1CCC(CN2CCN(C(C)(C)C)CC2)CC1)c1ccccc1C records IC50 below 0.8 µM.
Satisfied

Input Cc1ccccc1C(CC(=O)N1CCC(C(=O)N2CCN(C(C)(C)C)CC2)CC1)c1ccccc1C ; condition: IC50 strictly below 0.8 µM. Does it hold?
Not satisfied

For CC(C)(C)N1CCN(C(=O)C2CCN(C(=O)CC(c3ccccc3)c3ccccc3)CC2)CC1 , is the recorded IC50 below the cut-off of 0.8 µM?
Not satisfied

---

Molecular target: rat brain N-type calcium channel subunits (α1B+α2δ+β1b cDNA subunits) (Rattus norvegicus, UniProt Q02294)
Construct: expressed in transfected cells; host or cells: HEK 293
Assay: N-type calcium channel block, whole cell patch clamp in transfected HEK 293 cells
Format: cell-based
Settings: pulse frequency 0.2 Hz (frequency dependent block), holding potential −80 mV to +10 mV, 5 mM BaCl2, read-out: IC50 @ 0.2 Hz
Item-by-item account of IC50
Quick reminder: number only, in µM, skip the unit.

Completed entries (count: 5):
Cc1ccccc1C(CC(=O)N1CCC(C(=O)N2CC(C)NC(C)C2)(c2ccccc2)CC1)c1ccccc1C (stereo not drawn) = 0.24
Cc1ccccc1C(CC(=O)N1CCC(C(=O)N2CC(C)NC(C)C2)CC1)c1ccccc1C (stereo not drawn) = 3.71
O=C(CC(c1ccccc1)c1ccccc1)N1CCC(C(c2ccccc2)N2CCCCC2)CC1 (stereo not drawn) = 1.5
Cc1ccccc1C(CC(=O)N1CCC(CN2CC(C)NC(C)C2)CC1)c1ccccc1C (stereo not drawn) = 1.64
CN1CCN(C(=O)C2CCN(C(=O)C[S+]([O-])C(c3ccccc3)c3ccccc3)CC2)CC1 (stereo not drawn) = 1.8

What the record says about CC(C)(C)N1CCN(C(=O)C2CCN(C(=O)COC(c3ccc(F)cc3)c3ccc(F)cc3)CC2)CC1 : IC50 is 15.6

Item: COc1ccccc1C(CC(=O)N1CCC(C(c2ccccc2)N2CC(C)NC(C)C2)CC1)c1ccccc1OC (stereo not drawn) | IC50: 1.57

compound CC1CN(C(=O)C2CCN(C(=O)COC(c3ccccc3)c3ccccc3)CC2)CC(C)N1 (stereo not drawn) , IC50 observed: 0.99

IC50 measured on CC1CN(C(=O)C2CCN(C(=O)NC(c3ccccc3)c3ccccc3)CC2)CC(C)N1 (stereo not drawn) = 9.87

---

Target: rat brain N-type calcium channel subunits (α1B+α2δ+β1b cDNA subunits) (Rattus norvegicus)
Construct: expressed in transfected cells; host or cells: HEK 293
Experiment: N-type calcium channel block, whole cell patch clamp in transfected HEK 293 cells
Format: cell-based
Details: low frequency stimulation 0.067 Hz (tonic block), holding potential −80 mV to +10 mV, 5 mM BaCl2, read-out: IC50 @ 0.067 Hz
property-measured: IC50 (µM)
Give your result in µM as a bare value.

CC1CN(CC2(c3ccccc3)CCN(C(=O)CC(c3ccccc3)c3ccccc3)CC2)CC(C)N1 (stereo not shown) = 0.49
CC(C)(C)N1CCN(C(=O)C2CCN(C(=O)COC(c3ccc(F)cc3)c3ccc(F)cc3)CC2)CC1 = 2.59
CC1CN(C(c2ccccc2)C2CCN(C(=O)CC(c3ccccc3)c3ccccc3)CC2)CC(C)N1 (stereo not shown) = 0.88
O=C(C[S+]([O-])C(c1ccccc1)c1ccccc1)N1CCC(CN2CCCCC2)(c2ccccc2)CC1 (stereo not shown) = 1.25

Kindly note the recorded IC50 for Cc1ccccc1C(CC(=O)N1CCC(C(=O)N2CC(C)NC(C)C2)(c2ccccc2)CC1)c1ccccc1C (stereo not shown) , which is 0.41

Just so you know, measured IC50 for COc1ccccc1C(CC(=O)N1CCC(C(c2ccccc2)N2CC(C)NC(C)C2)CC1)c1ccccc1OC (stereo not shown) came out at 3

Entry Cc1ccccc1C(CC(=O)N1CCC(C(c2ccccc2)N2CCN(C)CC2)CC1)c1ccccc1C (stereo not shown) — recorded IC50 = 0.27
